growth inhibition values, listed per item
EXPERIMENTAL PROTOCOL: Restrictive medium S. cerevisiae growth inhibition, OD615, pilot screen of yeast lifespan reduction project, restrictive growth control (AID 706);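 further: modified DeaD lifespan yeast strain shifted to restrictive glucose medium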
CONDITION CONTEXT: OD615, 48 h, at 10 µM, active compounds read high
Write the number in % without appending the unit.

Before answering, review these 5 worked examples.
Cc1n[nH]c(=O)nc1NCc1ccccc1	-29
O=C(NCc1cccnc1)c1ccc(CS(=O)(=O)c2ccc(Br)cc2)o1	-13.7
Cc1cc2oc(C(=O)NCc3ccncc3)c(C)c2cc1C	10.7
Clc1cccc(CSc2nnc(-c3ccccn3)n2Cc2ccco2)c1	21.1
Nc1nonc1/C(=N/O)N1CCN(CCO)CC1	-1.22

IN: Requested read-out: growth inhibition. Entry: "NC(=O)CSc1nc2ccccc2n1-c1ccccc1"
OUT: 1.74

This collection of values is drawn from PubChem BioAssay.
